biological target: JAK3 (catalytic domain, His-tag) (Homo sapiens, UniProt P52333); construct: All four purified enzymes contain only the catalytic domain; His (N); purchased Carna Biosciences, Inc; host or cells: baculovirus expression system; experiment: JAK kinase assay (HTRF, phosphorylation of TK substrate-biotin), JAK3; assay type: biochemical; details: ATP at Km (2 μM); read-out: JAK3 kinase inhibitory activity (EC50 indicator)
Sequence (P52333 822-1111 limits assumed): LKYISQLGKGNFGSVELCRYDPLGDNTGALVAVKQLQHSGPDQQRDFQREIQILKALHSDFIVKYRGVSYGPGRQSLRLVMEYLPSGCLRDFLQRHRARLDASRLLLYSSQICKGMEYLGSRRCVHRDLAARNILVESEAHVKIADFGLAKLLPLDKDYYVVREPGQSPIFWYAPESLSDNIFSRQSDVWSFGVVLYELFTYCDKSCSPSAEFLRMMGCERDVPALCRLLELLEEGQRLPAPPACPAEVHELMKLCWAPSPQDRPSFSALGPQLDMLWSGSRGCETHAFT
Measured EC50 values are reported for all entries that follow.

C#CCOC(=O)N1[C@@H]2CC[C@H]1CN(c1ncnc3[nH]ccc13)C2 [Example 59] :: 100 to 500 nM
O=C(C1CCc2ccccc21)N1CCN(c2ncnc3[nH]ccc23)CC12CC2 (centres unmarked) [Example 105] :: 100 to 500 nM
Cc1cnc(C(=O)N2[C@@H]3CC[C@H]2CN(c2ncnc4[nH]ccc24)C3)cn1 [Example 74] :: > 500 nM
N#Cc1ccc(C(=O)N2CCN(c3ncnc4[nH]ccc34)CC23CC3)cc1 [Example 15] :: 100 to 500 nM

Asked: Field request: EC50 | item: O=C(c1cc2cc(F)cc(F)c2[nH]1)N1C2CCC1CN(c1ncnc3[nH]ccc13)C2 [Example 140]
Given back: < 100 nM

Asked: # repeat for Cn1cc(S(N)(=O)=O)cc1C(=O)N1CCN(c2ncnc3[nH]ccc23)CC12CC2 [Example 188]
Given back: < 100 nM
